# measured-on: Apelin receptor (Rattus norvegicus, UniProt Q9JHG3)
# Sequence (Q9JHG3 whole entry): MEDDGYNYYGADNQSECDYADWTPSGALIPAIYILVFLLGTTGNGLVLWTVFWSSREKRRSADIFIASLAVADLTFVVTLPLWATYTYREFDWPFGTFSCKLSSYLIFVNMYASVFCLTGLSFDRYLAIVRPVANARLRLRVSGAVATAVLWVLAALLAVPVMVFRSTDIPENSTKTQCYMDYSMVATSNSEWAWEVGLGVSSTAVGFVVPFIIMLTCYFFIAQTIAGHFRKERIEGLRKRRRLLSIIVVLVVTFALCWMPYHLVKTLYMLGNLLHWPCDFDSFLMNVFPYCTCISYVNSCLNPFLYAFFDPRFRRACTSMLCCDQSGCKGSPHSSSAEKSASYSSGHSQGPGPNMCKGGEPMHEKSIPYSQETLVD
# method-notes: Agonist activity at rat APJ receptor assessed as effect on cAMP accumulation by cAMP-Glo assay
measurement-label: EC50 (nM)

Study these solved cases before continuing.
CCCCc1[nH]c(=O)c(S(=O)(=O)c2ccc(-c3ccc(F)cc3)cc2)c(O)c1-c1c(OC)cccc1OC    72
CCCCc1[nH]c(=O)c(S(=O)(=O)c2ccc(-c3cccnc3OC)cc2)c(O)c1-c1c(OC)cccc1OC    0.7
COc1cccc(OC)c1-n1c(C2CCCC2)nc(=O)c(S(=O)(=O)c2ccc(C3CC3)cc2)c1O    1.5
CCCCc1[nH]c(=O)c(S(=O)(=O)c2ccc(-c3ccc(F)nc3)cc2)c(O)c1-c1c(OC)cccc1OC    12
COc1cccc(OC)c1-n1c(-c2cncc(C)c2)nc(=O)c(S(=O)(=O)c2ccc(C3CC3)cc2)c1O    10

1: CCCCc1nc(=O)c(S(=O)(=O)c2ccc(-c3cccnc3OC)cc2)c(O)n1-c1c(OC)cccc1OC
2: COc1cccc(OC)c1-n1c(CCC(C)C)nc(=O)c(S(=O)(=O)c2ccc(-c3ccc(F)nc3)cc2)c1O
Data request: Please indicate which item has the smaller measured EC50: 1 versus 2 State your choice using its label.
Data returned: 1

These measurements were taken from ChEMBL document CHEMBL4808235.
